From: paper PMC10397247

Target system: T1, 4H464-AA
T1 chain: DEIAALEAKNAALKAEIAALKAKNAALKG
Assay: two-hybrid library CCmax;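 further: natural log of median RNA to DNA barcode read ratio; higher means stronger binding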
Measurement context: mean of both orientations
Observed property: interaction score

{"Binder": "DKNAALEAEIAALEAKNAALKAEIAALEG [4H3129-AA]", "Observed property": "interaction score", "Assay result": -1.78}

[1] DKNAALKAEIAALEAEIAALKAENAALEG [4H3595-AA]
[2] DEIAALEAKNAALEAKNAALKAKIAALKG [4H446-AA]
[3] DKNAALKAKNAALEAEIAALEAEIAALEG [4H3969-AA]
Output the entries ranked by interaction score from maximum down to minimum. Output spec: labels arranged per the requested ranking.
1, 3, 2
